System: Rice
Test: Phytotoxicity on various crops
Type: in vivo
Parameters: key: Symbol — indicates that no toxicity was observed
Conditions: 500 ppm sprayed; checked visually after 10 days
readout: Phytotoxicity: Rice

>  <compound>
CCCSP(=O)(OC)Oc1ccc2c(c1)OC(C)=CC2(C)C (centres unmarked)

>  <readout>
Phytotoxicity: Rice

>  <value.observed>
—

$$$$
>  <compound>
CCOP(=S)(Oc1cccc2c1C(C)=CC(C)(C)O2)SC(C)CC (centres unmarked)

>  <readout>
Phytotoxicity: Rice

>  <value.observed>
—

$$$$
>  <compound>
CCOP(=S)(Oc1ccc2c(c1)OC(C)=CC2(C)C)SC(C)CC (centres unmarked)

>  <readout>
Phytotoxicity: Rice

>  <value.observed>
—

$$$$
>  <compound>
CCCSP(=S)(OC)Oc1ccc2c(c1)OC(C)=CC2(C)C (centres unmarked)

>  <readout>
Phytotoxicity: Rice

>  <value.observed>
—

$$$$
>  <compound>
CCOP(=O)(Oc1ccc2c(c1)OC(CC)=C(C)C2(CC)CC)SC(C)CC (centres unmarked)

>  <readout>
Phytotoxicity: Rice

>  <value.observed>
—

$$$$
>  <compound>
CCCCSP(=O)(OCC)Oc1ccc2c(c1)OC(C)=CC2(C)C (centres unmarked)

>  <readout>
Phytotoxicity: Rice

>  <value.observed>
—

$$$$
>  <compound>
CCCSP(=S)(OCC)Oc1cccc2c1C(C)=CC(C)(C)O2 (centres unmarked)

>  <readout>
Phytotoxicity: Rice

>  <value.observed>
—

$$$$
>  <compound>
CCCSP(=O)(OCC)Oc1ccc2c(c1)OC(C)(C)C=C2C (centres unmarked)

>  <readout>
Phytotoxicity: Rice

>  <value.observed>
—

$$$$

Identify the reported Phytotoxicity: Rice for the following entry. CCOP(=O)(Oc1cccc2c1C(C)=CC(C)(C)O2)SC(C)CC (centres unmarked)
—

Indicate the recorded Phytotoxicity: Rice value for this compound: CCCCOP(=O)(Oc1ccc2c(c1)OC(C)=CC2(C)C)SCCC (centres unmarked)
—

* * *

// reported Percent Mortality After Application 5th Day for each item listed
Tested on: tobacco cutworm
Assay: Long-lasting insecticidal effect on tobacco cutworm (sprayed cabbage plantlet)
Format: in vivo, Prodenia litura
Conditions: Table 5; concentration 500 (unit not given); leaves cut on 5th day, mortality after 48 hours
Only the number, expressed in %, is required.

As a guide, the following entries are already answered.
>  <compound>
CCCSP(=O)(OCC)Oc1ccc2c(c1)OC(C)=CC2(C)C (stereo not drawn)

>  <unit.symbol>
%

>  <value.observed>
100

$$$$
>  <compound>
CCCSP(=O)(OCC)Oc1ccc2c(c1)OC(C)CC2(C)C (stereo not drawn)

>  <unit.symbol>
%

>  <value.observed>
100

$$$$
>  <compound>
CCC(C)SP(=O)(OC)Oc1ccc2c(c1)OC(C)=CC2(C)C (stereo not drawn)

>  <unit.symbol>
%

>  <value.observed>
100

$$$$
>  <compound>
CCCSP(=S)(OCC)Oc1ccc2c(c1)OC(C)=CC2(C)C (stereo not drawn)

>  <unit.symbol>
%

>  <value.observed>
100

$$$$
>  <compound>
CCCSP(=O)(OC)Oc1ccc2c(c1)OC(C)=CC2(C)C (stereo not drawn)

>  <unit.symbol>
%

>  <value.observed>
100

$$$$
>  <compound>
CCCSP(=O)(OCC)Oc1ccc2c(c1)OC(C)(C)C=C2C (stereo not drawn)

>  <unit.symbol>
%

>  <value.observed>
100

$$$$
>  <compound>
CCCSP(=S)(OC)Oc1ccc2c(c1)OC(C)=CC2(C)C (stereo not drawn)

>  <unit.symbol>
%

>  <value.observed>
100

$$$$
>  <compound>
CNC(=O)ON=C(C)SC [Lannate, reference compound]

>  <unit.symbol>
%

>  <value.observed>
30

$$$$

Quote Percent Mortality After Application 5th Day reported for COP1(=S)OCc2ccccc2O1 (stereo not drawn) [Salithion, reference compound] please.
0
